Test system: STK36
Details: concentration: 1 μM, replicates: in singlicate; n = 1;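 note: KINOMEscan kinase panel screen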
TEST READOUT: %Inh (%)
The reply should contain only the number, in %.

Examples with their reported %Inh follow.
1. COc1cc(Nc2ccnc3cc(-c4ccncc4)ccc23)cc(OC)c1OC.Cl ... 9
2. CN(C)c1ncnc2nc[nH]c12 ... 0

# input Specify reported %Inh for the compound shown: `COc1cccc(C2=C(Nc3cccc(O)c3)C(=O)NC2=O)c1`
# output 0

# input Specify reported %Inh for the compound shown: `CCOc1nccc(-c2c(-c3ccc(F)cc3)ncn2C2CCNCC2)n1`
# output 24

# input Specify reported %Inh for the compound shown: `Cc1ccc(Nc2ccnc(Nc3ccc(C)c(F)c3)n2)cc1O.Cl`
# output 7

---

Tested on: CSNK1G1
Conditions: concentration: 1 μM, replicates: in singlicate; n = 1
TEST READOUT: %Inh
Remember to put the unit after the number in your answer.

Examples with their reported %Inh follow.
1. COc1cc(Nc2nccc(N3CCC(NS(=O)(=O)c4ccc(NC(C)=O)cc4)CC3)n2)cc(OC)c1OC ... 0%
2. CN(C)CCOc1ccc(-c2cc(-c3ccc(Cl)c(O)c3)c(-c3ccncc3)[nH]2)cc1.Cl.Cl ... 36%
3. COc1cccc(-c2nc(-c3ccccc3)[nH]c2-c2ccncc2)c1 ... 0%
4. CCn1c(-c2nonc2N)nc2c(-c3ccccc3)ncc(OCCCN)c21.O=C(O)C(F)(F)F.O=C(O)C(F)(F)F ... 10%
5. COc1ccc(NC(=O)c2ccoc2)cc1-c1ccc(C(=O)NCC2CC2)cc1 ... 0%
6. Cc1nn2c(=O)cc(N3CCO[C@H](C)C3)nc2n1Cc1cccc(Cl)c1Cl ... 10%
7. Cl.Cl.NC(CNC(=O)c1cc(Br)c(-c2ccnc3[nH]ccc23)s1)c1ccccc1 (centres unmarked) ... 30%
8. CCn1cnc2c(NCc3ccccc3)ncnc21 ... 0%
9. Cc1ccc(NC(=O)c2ccnc(N3CCCCC3)c2)cc1-c1ccc(C(=O)NCC2CC2)cc1 ... 0%
10. CN1CCN(Cc2ccc(NC(=O)Nc3ccc(N(C)c4ccnc(Nc5ccc(CS(C)(=O)=O)cc5)n4)cc3)cc2)CC1.Cl ... 0%

# input Specify reported %Inh for the compound shown: `CN(C)CCNS(=O)(=O)c1ccc(-c2ccnc3[nH]ccc23)cc1`
# output 0%

# input Specify reported %Inh for the compound shown: `O=C1NC(=O)C(c2ccccc2Cl)=C1Nc1cccc(Cl)c1`
# output 14%

# input Specify reported %Inh for the compound shown: `COc1cccc(CC(=O)N2CCc3cc(-c4cn(C)c5ncnc(N)c45)ccc32)c1`
# output 23%

# input Specify reported %Inh for the compound shown: `O=C(Nc1n[nH]c2nc(-c3ccccc3)ccc12)C1CC1`
# output 0%

# input Specify reported %Inh for the compound shown: `Nc1ncc(-c2ccc3nccc(-c4ccncc4)c3c2)cc1S(=O)(=O)N1CCCCC1`
# output 0%

# input Specify reported %Inh for the compound shown: `Cc1ccccc1CC(=O)N1CCc2cc(-c3cn(C)c4ncnc(N)c34)ccc21`
# output 12%

# input Specify reported %Inh for the compound shown: `Nc1ncc(-c2cn[nH]c2)c2scc(-c3ccc4c(c3)CCN4C(=O)Cc3ccccc3)c12`
# output 6%

---

Recorded measurements of %Inh, one per entry
Test system: PDGFRB
Conditions: concentration: 1 μM, replicates: in singlicate; n = 1
The reply should contain only the number, in %.

1) COc1ccc(C2=C(Nc3cccc(O)c3)C(=O)NC2=O)cc1 ... 26
2) CCOc1nccc(-c2c(-c3ccc(F)cc3)ncn2C2CCNCC2)n1 ... 8
3) CSc1ccc(NC2=C(c3ccc(Cl)cc3)C(=O)NC2=O)cc1 ... 31
4) Cc1ccc(NC(=O)c2cccc(N3CCCCC3)c2)cc1-c1ccc(C(=O)NCC2CC2)cc1 ... 98.7
5) CC(C)NCC(Cc1ccccc1)NC(=O)c1cc(Br)c(-c2ccnc3[nH]ccc23)s1.Cl.Cl (stereo not shown) ... 74

# input Report %Inh on PDGFRB for this entry: Cl.Cl.NCC(NC(=O)c1cc(-c2cccnc2)c(-c2ccnc3[nH]ccc23)s1)c1ccccc1 (stereo not shown)
# output 28
